- subject.of.test: TLR7 (Homo sapiens)
- protocol.notes: HEK Cell Assay (TLR7/NFKb HEK reporter cells, Steady-Glo)
- test.context: compound 30 min, then R*48 agonist 5 hours, Steady-Glo readout, read-out: Potency
pIC50: −log10 of the molar value.
So I've got a bunch of compounds here, and I need their pIC50 values.

{"compound": "C[C@@H]1C[C@H](c2ccc(C#N)c3ncccc23)CN(CC(=O)NCCN2CCN(C)CC2)C1 (relative stereo) [Compound 72]", "subject.of.test": "TLR7 (Homo sapiens)", "pIC50": "4.70 to 6.00"}

Give pIC50 for each listed item.
1. C[C@H]1C[C@@H](NC(=O)[C@H](N)C(F)(F)F)C[C@H](c2ccc(C#N)c3nccnc23)C1 (racemic) [Compound 145]
2. C[C@@H]1C[C@H](N)C[C@@H](c2ccc(C(F)(F)F)c3nccnc23)C1 [Compound 141]
3. CC1CC(c2ccc(C#N)c3ncccc23)CN(C(=O)NCC2CC(F)(F)C2)C1 (stereo not shown) [Compound 110]

Response line:
1. 4.70 to 6.00
2. > 6.00
3. 4.70 to 6.00

====

- subject.of.test: TLR7 (Homo sapiens, UniProt Q9NYK1)
- Construct: expressed in transfected cells; host or cells: HEK cells carrying TLR7 and an NF-kB reporter read with Steady-Glo
- Sequence (Q9NYK1 27-1049): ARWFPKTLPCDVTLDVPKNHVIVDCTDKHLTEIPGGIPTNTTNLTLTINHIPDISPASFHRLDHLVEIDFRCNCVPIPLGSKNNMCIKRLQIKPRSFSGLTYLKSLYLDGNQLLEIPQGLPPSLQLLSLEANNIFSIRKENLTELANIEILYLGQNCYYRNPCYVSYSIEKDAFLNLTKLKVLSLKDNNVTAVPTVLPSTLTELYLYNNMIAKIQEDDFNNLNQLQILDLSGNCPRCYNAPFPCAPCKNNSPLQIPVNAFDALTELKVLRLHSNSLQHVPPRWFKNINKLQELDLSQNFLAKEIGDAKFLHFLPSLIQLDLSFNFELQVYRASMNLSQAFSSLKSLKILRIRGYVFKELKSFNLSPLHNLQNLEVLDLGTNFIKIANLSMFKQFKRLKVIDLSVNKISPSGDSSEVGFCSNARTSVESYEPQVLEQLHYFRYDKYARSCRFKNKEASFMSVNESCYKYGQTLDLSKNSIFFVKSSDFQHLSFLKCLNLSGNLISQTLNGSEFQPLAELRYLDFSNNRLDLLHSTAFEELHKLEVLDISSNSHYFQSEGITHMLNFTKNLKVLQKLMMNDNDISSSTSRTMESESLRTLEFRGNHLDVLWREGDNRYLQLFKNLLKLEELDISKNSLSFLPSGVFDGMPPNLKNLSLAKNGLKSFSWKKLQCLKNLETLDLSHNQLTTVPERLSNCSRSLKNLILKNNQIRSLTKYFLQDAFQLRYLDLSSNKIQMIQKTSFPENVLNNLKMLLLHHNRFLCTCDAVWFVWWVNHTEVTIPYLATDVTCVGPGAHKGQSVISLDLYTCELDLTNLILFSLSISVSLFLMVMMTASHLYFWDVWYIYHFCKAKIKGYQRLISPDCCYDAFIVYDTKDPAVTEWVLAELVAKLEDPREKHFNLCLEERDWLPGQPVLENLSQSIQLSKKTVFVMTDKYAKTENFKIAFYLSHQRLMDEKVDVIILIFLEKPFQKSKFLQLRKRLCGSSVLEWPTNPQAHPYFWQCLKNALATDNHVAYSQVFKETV
- protocol.notes: HEK Cell Assay (TLR7/NFKb HEK reporter cells, Steady-Glo)
- Assay type: cell-based
- test.context: compound 30 min, then R*48 agonist 5 hours, Steady-Glo readout, read-out: Potency
So I've got a bunch of compounds here, and I need their IC50 values.

{"compound": "C[C@@H]1C[C@H](c2ccc(OC(F)(F)F)c3ncccc23)CN(C(=O)NC2CCN(C)CC2)C1", "quantity.name": "IC50", "observed": "< 1000 nM"}
{"compound": "C[C@@H]1C[C@H](c2ccc(C#N)c3ncccc23)CN(C(=O)CN2CCC3(CC2)CNC3)C1", "quantity.name": "IC50", "observed": "1000 to 20000 nM"}
{"compound": "C[C@@H]1C[C@H](c2ccc(C#N)c3ncccc23)CN(C(=O)CC2[C@H]3CN(C)C[C@@H]23)C1 (relative stereo)", "quantity.name": "IC50", "observed": "< 1000 nM"}
{"compound": "CC1CC(c2ccc(C(F)(F)F)c3ncccc23)CN(c2ncco2)C1 (stereo not drawn)", "quantity.name": "IC50", "observed": "1000 to 20000 nM"}
{"compound": "C[C@@H]1C[C@H](c2ccc(C#N)c3ncccc23)CN(C(=O)CC2CN(C)C2)C1 (relative stereo)", "quantity.name": "IC50", "observed": "1000 to 20000 nM"}

Give IC50 for each listed item.
1. C[C@@H]1C[C@H](c2ccc(C(F)(F)F)c3ncccc23)CN(CCO)C1 (relative stereo)
2. CC1CC(c2ccc(C#N)c3ncccc23)CN(C(=O)CCC2CCN(C)CC2)C1 (stereo not drawn)

Response line:
> 20000 nM
< 1000 nM

Give IC50 for each listed item.
1. C[C@@H]1C[C@H](c2ccc(C#N)c3ncccc23)CN(C(N)=O)C1
2. C[C@H]1C[C@@H](N)C[C@@H](c2ccc(C#N)c3nccnc23)C1 [Compound 121]
3. C[C@@H]1C[C@H](c2ccc(C(F)(F)F)c3ncccc23)CN(C(=O)CCN2CCN(C)CC2)C1
4. C[C@@H]1C[C@H](c2ccc(C#N)c3ncccc23)CN(Cc2cnn(C)c2)C1
5. C[C@H]1C[C@@H](N)C[C@@H](c2ccc(C#N)c3nccnc23)C1 (racemic) [Compound 120]
6. C[C@@H]1C[C@H](c2cc(F)c(C#N)c3ncccc23)CN(C(=O)CC2CCN(C)CC2)C1
7. C[C@H]1C[C@H](c2ccc(C#N)c3nccnc23)CN(C(=O)CC2CCN(C)CC2)C1

Response line:
1. 1000 to 20000 nM
2. < 1000 nM
3. < 1000 nM
4. > 20000 nM
5. < 1000 nM
6. 1000 to 20000 nM
7. > 20000 nM

Give IC50 for each listed item.
1. C[C@@H]1C[C@@H](c2ccc(C#N)c3ncccc23)CN(C(=O)CN2CCN(C)CC2)C1 (relative stereo) [Compound 30]
2. C[C@@H]1C[C@@H](c2ccc(OC(F)(F)F)c3ncccc23)CN(C(=O)CN2CCN(C)CC2)C1
3. C[C@@H]1C[C@H](c2ccc(C#N)c3ncccc23)CN(C(=O)CC2CCN(C)C2)C1 (stereo partly drawn)
4. COc1ccc([C@H]2C[C@@H](C)CN(C(=O)CC3CCN(C)CC3)C2)c2cccnc12
5. C[C@H]1C[C@@H](N)C[C@H](c2ccc(C#N)c3nccnc23)C1
6. C[C@@H]1C[C@H](c2ccc(C#N)c3ncccc23)CN(CC(=O)N2CCC(N(C)C)CC2)C1 (relative stereo)
7. C[C@@H]1C[C@H](c2ccc(C(F)(F)F)c3ncccc23)CN(C(=O)CC2CCN(C)CC2)C1 [Compound 42]
8. C[C@H]1C[C@@H](N)C[C@H](c2ccc(C(F)(F)F)c3ncccc23)C1

Response line:
1. < 1000 nM
2. > 20000 nM
3. < 1000 nM
4. < 1000 nM
5. < 1000 nM
6. 1000 to 20000 nM
7. < 1000 nM
8. 1000 to 20000 nM
